# key: entry, value: Cmax
- assayRemarks: Cmax in Beagle dog at 1 mg/kg, po
- studyConditions: in vivo
Dear colleague, please return just the value in ng/mL, with no unit written.

1. O=C(O)CN1C(=O)[C@@]2(CC(=O)N(Cc3ccccc3F)C2=O)c2cc(Cl)ccc21    503

With those in mind, consider the next compound.
*Q* Query (compound): O=C(O)CN1C(=O)[C@@]2(CC(=O)N(Cc3cc(Cl)ccc3F)C2=O)c2cc(Cl)ccc21 ; field requested: Cmax
*A* 68.8

====

- assayRemarks: Intrinsic clearance per mg of protein in rat liver microsomes at 3 uM
- Format: ADME, Microsome
Entries are grouped by microsomal CLint at 3 µM into these classes: b0 (below 20 µL/min/mg), b1 (20 µL/min/mg to below 30 µL/min/mg), b2 (30 µL/min/mg or more)

Example entries and their recorded answers appear below.
1) COc1c(C)cnc(CN2C(=O)CC3(C2=O)C(=O)N(CC(=O)O)c2ccc(Cl)cc23)c1C (stereo unspecified)    b2
2) O=C(O)CN1C(=O)C2(CC(=O)N(Cc3cc(F)cc(Cl)c3)C2=O)c2cc(Cl)ccc21 (stereo unspecified)    b0
3) COc1cccc(CN2C(=O)CC3(C2=O)C(=O)N(CC(=O)O)c2ccc(Cl)cc23)c1 (stereo unspecified)    b2
4) COc1cccc(CN2C(=O)C[C@]3(C2=O)C(=O)N(CC(=O)O)c2ccc(Cl)cc23)c1    b2

*Q* # bin lookup: classify O=C(O)CN1C(=O)[C@@]2(CC(=O)N(Cc3cccc(Cl)c3)C2=O)c2cc(Cl)ccc21 by its microsomal CLint at 3 µM
*A* b0

*Q* And O=C(O)CN1C(=O)C2(CC(=O)N(Cc3ccc(F)c(F)c3)C2=O)c2cc(Cl)ccc21 (stereo unspecified) ?
*A* b2

*Q* // same read-out, input: Cc1onc(-c2ccccc2)c1CN1C(=O)CC2(C1=O)C(=O)N(CC(=O)O)c1ccc(Cl)cc12 (stereo unspecified)
*A* b1

*Q* Then what about the compound O=C(O)CN1C(=O)[C@@]2(CC(=O)N(Cc3cc(Cl)ccc3F)C2=O)c2cc(Cl)ccc21 ?
*A* b0
